# measurement-description: Kinetic Solubility Assay in pH 7.4 Buffer + 2% DMSO
# Assay type: physicochemical
# condition-context: phosphate-buffered saline pH 7.4 with 2% DMSO, aqueous buffer, kinetic from dmso stock, 25° C., two hours
measured-metric: solubility at 2 h

>>> endpoint_result("Cc1c(-c2ccn(C(C)C)n2)cn2nc(-c3nccn3C)nc(Nc3cnccn3)c12")
"< 10 µM"
>>> endpoint_result("Cc1c(-c2ccn(C)n2)cn2nc(-c3nccn3C)nc(Nc3cc(C(C)C)[nH]n3)c12")
"< 10 µM"
>>> endpoint_result("COc1ccnc(Nc2nc(-c3nccn3C)nn3cc(-c4ccn(C5CC5)n4)c(C)c23)c1")
"10 to 30 µM"
>>> endpoint_result("Cc1c(-c2ccn(C(C)C)n2)cn2nc(-c3nccn3C)nc(Nc3cc4n(n3)CCO4)c12")
"> 30 µM"
>>> endpoint_result("Cc1c(-c2ccn(C)n2)cn2nc(-c3nccn3C)nc(Nc3cc(C4CC4)[nH]n3)c12")
"< 10 µM"
>>> endpoint_result("Cc1[nH]nc(Nc2nc(-c3nccn3C)nn3cc(-c4ccn(C)n4)c(C)c23)c1C")
"10 to 30 µM"
>>> endpoint_result("Cc1c(-c2ccn(C3CC3)n2)cn2nc(-c3nccn3C)nc(Nc3ccccn3)c12")
"< 10 µM"
>>> endpoint_result("Cc1c(-c2ccn(C3CC3)n2)cn2nc(-c3nccn3C)nc(Nc3cc(N(C)C)ccn3)c12")
"10 to 30 µM"

---

# Tested on: KRas wild type
# measurement-description: Ras GTP Binding Domain Inhibition Assay (Ras Superfamily Assay)
# condition-context: 20 μM compound, without SOS
measured-metric: KRas wild type: % inh.

>>> endpoint_result("COCCO[C@H]1C[C@H](Nc2nc(-c3nccn3C)nn3cc(-c4ccn(C(C)C)n4)c(C)c23)C1")
"0 (0 = 0% inhibition)"
>>> endpoint_result("Cc1c(-c2ccn(C3CC3)n2)cn2nc(-c3nccn3C)nc(O)c12")
"0 (0 = 0% inhibition)"
>>> endpoint_result("Cc1c(-c2ccn(C(C)C)n2)cn2nc(-c3nccn3C)nc(Nc3noc(C4CC4)n3)c12")
"A (A = 1-25% inhibition)"
>>> endpoint_result("COC1CCCN(c2nc(-c3nccn3C)nn3cc(-c4ccn(C(C)C)n4)c(-c4ccccc4)c23)C1 (racemic)")
"A (A = 1-25% inhibition)"

---

# System: Erk1/2 phosphorylation
# measurement-description: Erk1/2 Phosphorylation Assay (western blot), Panc-1
# Type: cell-based, human
# condition-context: at 10 μM, * = activation
measured-metric: % inh of Erk1/2 phosphorylation in Panc-1

>>> endpoint_result("Cc1c(-c2ccn(C(C)C)n2)cn2nc(-c3nccn3C)nc(Nc3nccn3C)c12 [Compound 93]")
"D (85-100% inhibition)"
>>> endpoint_result("CO[C@H]1C[C@H](Nc2nc(-c3nccn3C)nn3cc(-c4cccc5c4CCO5)c(-c4ccccc4)c23)C1 [Compound 210]")
"D (85-100% inhibition)"

---

inhibition at 20 µM by entry:
# system-under-test: Rheb (Homo sapiens, UniProt Q15382)
# Construct: made in house
# Sequence (Q15382 whole entry): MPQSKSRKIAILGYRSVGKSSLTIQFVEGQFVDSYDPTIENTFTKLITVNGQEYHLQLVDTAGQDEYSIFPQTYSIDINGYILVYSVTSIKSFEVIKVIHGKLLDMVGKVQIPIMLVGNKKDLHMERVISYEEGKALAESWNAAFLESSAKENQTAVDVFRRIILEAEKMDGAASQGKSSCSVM
# measurement-description: Rheb GTP Binding Domain Inhibition Assay
# condition-context: read-out: Rheb: % inh.
measured-metric: inhibition at 20 µM

>>> endpoint_result("Cc1c(-c2ccn(C(C)C)n2)cn2nc(-c3nccn3C)nc(Nc3nnc(C4CC4)o3)c12")
"50 to 75%"
>>> endpoint_result("Cc1c(-c2ccn(C(C)C)n2)cn2nc(-c3nccn3C)nc(Nc3ccn(C)n3)c12")
"76 to 100%"
>>> endpoint_result("COc1cc(Nc2nc(-c3nccn3C)nn3cc(-c4ccccn4)c(C)c23)ncn1")
"26 to 49%"
>>> endpoint_result("Cc1c(-c2ccn(C(C)C)n2)cn2nc(-c3nccn3C)nc(Nc3cc(C4CC4)n[nH]3)c12")
"76 to 100%"
